# System: RXF 393 renal
# test_summary: NCI-60 one-dose screen, 48 h
# measurement_setup: 10 µM unless noted
The panel holds about 83,000 compounds, 20% with a hit somewhere; the sample as a whole holds those more often. Calls of active or inactive are those of the source. Rule for the calls: active = growth percent below 10; inactive = the rest.
The reply should be one of these categories: YES for active, NO for inactive

compound: O=C(Cc1ccc(/C=C/C(=O)c2ncc[nH]2)cc1)Nc1ccc(C(F)(F)F)cc1
label_value: NO
//
compound: C=C(C)[C@@H]1CC[C@]2(C(=O)O)CC[C@]3(C)[C@H](CC[C@@H]4[C@@]5(C)C[C@@H](CC#Cc6ccc(Br)cc6)C(=O)C(C)(C)[C@@H]5CC[C@]43C)[C@@H]12
label_value: NO
//
compound: C=CCn1c(SCC(=O)Nc2ccc(C(=O)/C=C/c3cc(OC)c(OC)c(OC)c3)cc2)nnc1-c1cc(-c2ccc(S(C)(=O)=O)cc2)nc2ccccc12
label_value: NO

**Query** Answer briefly: the call reported for COc1cccc(-c2nc3occn3c2-c2ccnc(NCCCNS(=O)(=O)c3cccc(F)c3)n2)c1 in this assay.
**Result** NO

**Query** Answer briefly: the call reported for CC(Oc1ccc(C(=O)NS(=O)(=O)C(C)(C)C)cc1C(F)(F)F)c1ccc(Oc2ccccc2)cn1 (stereo not given) in this assay.
**Result** NO

**Query** Answer briefly: the call reported for COc1ccc(/C(C)=N/NC(=O)CSc2nc3ccccc3c(=O)n2Cc2ccc(S(N)(=O)=O)cc2)c(OC)c1 in this assay.
**Result** NO

* * *

# Tested on: MDA-MB-231 breast
# test_summary: NCI-60 one-dose screen, 48 h (100 = growth as untreated, 0 = no growth, -100 = all killed)
# measurement_setup: 10 µM unless noted
# Procedure: Cells are grown in 96 well plates and exposed to the test compound for 48 hours. Compounds are tested at a single concentration, which is 10^-5 M for most compounds. The reported endpoint is percent growth (GI% or GIPRCNT), where numbers from 0 - 100% represent growth inhibition, and numbers from -100% - 0 represent cell death. For example, a value of 40 represents 60% growth inhibition. A value of 0 means no net growth occurred over the course of the experiment. […]
About 83,000 compounds went through this panel and 20% of them were active in at least one assay; those are over-represented in the sample as a whole.
growth: recorded values
Report the figure in % without appending any unit label.

Solved cases below.
compound: C=C(C)[C@@H]1CC[C@]2(C=O)CC[C@]3(C)[C@H](CC[C@@H]4[C@@]5(C)CCCNC(C)(C)[C@@H]5CC[C@]43C)[C@@H]12
target: MDA-MB-231 breast
reported_property: growth
observed_measurement: 91.2
--
compound: COc1cccc(C(Cc2ccccc2)Nc2ccccc2)c1OC (stereo not given)
target: MDA-MB-231 breast
reported_property: growth
observed_measurement: 97.4
--
compound: COc1ccc(C2CC(c3cccc(Nc4ccncc4)c3)=NN2c2ccccc2)cc1 (stereo not given)
target: MDA-MB-231 breast
reported_property: growth
observed_measurement: 62.5
--
compound: Nc1c(Cl)cc([N+](=O)[O-])cc1Br
target: MDA-MB-231 breast
reported_property: growth
observed_measurement: 101

# ---- query compound ----
The compound COc1cc2nc(-c3ccc(-c4nn[nH]n4)cc3)[nH]c(=O)c2cc1OC , tested on MDA-MB-231 breast, showed growth of 119

* * *

# Tested on: SK-MEL-28 melanoma
# test_summary: NCI-60 one-dose screen, 48 h
# measurement_setup: 10 µM unless noted
This is part of a sample that, as a whole, favours compounds with a hit. Of some 83,000 tested, about 20% had one in any assay. Calls of active or inactive are those of the source. The calls were made as follows: active = growth percent below 10; inactive = the rest.
The reply should be one of these categories: y = active, n = inactive

Below are worked cases with known answers.
molecule: COc1ccc(C(=O)c2cc3c(N)c(C(=O)Nc4cccc(Cl)c4)sc3nc2C)cc1
label_value: n
--
molecule: C1=C2CNCC3=Cc4ccc5ccccc5c4OC23Oc2c1ccc1ccccc21
label_value: n

**Query** Answer briefly: the call reported for O=C(N/N=C/c1ccc(F)cc1)c1ccccc1Nc1cccc(C(F)(F)F)c1 in this assay.
**Result** n

**Query** Answer briefly: the call reported for O=[N+]([O-])c1cccc(-c2nc(-c3ccc(Cl)cc3Cl)cn2-c2ccccc2)c1 in this assay.
**Result** y

**Query** Answer briefly: the call reported for NNC(=O)/C(=C\c1ccc([N+](=O)[O-])cc1)CC(=O)c1ccc(Cl)c(Cl)c1 in this assay.
**Result** n

* * *

# System: OVCAR-4 ovarian
# test_summary: NCI-60 one-dose screen, 48 h
# measurement_setup: 10 µM unless noted
Compounds without any hit were thinned out: in the full panel of roughly 83,000, 20% have a hit. Activity calls are given as the source filed them. How the source made its calls: active means growth percent below 10; inactive means the rest.
The reply should be one of these categories: True = active, False = inactive

Below are worked cases with known answers.
molecule: Fc1cc(C2=NNC(c3ccc[nH]3)C2)ccc1-n1ccc(C(F)(F)F)n1 (configuration not stated)
label_value: False
//
molecule: [O-][n+]1ccccc1CCN(O)CCc1cccc[n+]1[O-]
label_value: False
//
molecule: O=C(Nc1nc(-c2ccccc2Cl)cs1)c1cc(-c2ccccc2)nc2ccc(Cl)cc12
label_value: False
//
molecule: O=C(Cc1ccc(/C=C/C(=O)c2ncc[nH]2)cc1)Nc1ccc(C(F)(F)F)cc1
label_value: False
//
molecule: COc1ccc(C(=O)c2cc3c(N)c(C(=O)Nc4cccc(OC)c4)sc3nc2C)cc1
label_value: False
//
molecule: CCNC(=O)c1[nH]cc(-c2ccc(OC)cc2)c1-c1cc(OC)c(OC)c(OC)c1
label_value: False

**Query** Answer briefly: the call reported for C#CCn1cc(C=C2C(=O)NC(=S)NC2=O)c2cc(Cl)ccc21 in this assay.
**Result** False

**Query** Answer briefly: the call reported for Cc1ccc(Nc2cc(=S)nc(N)[nH]2)cc1C in this assay.
**Result** False

**Query** Answer briefly: the call reported for COc1ccc(/C=C/C(=O)c2ccc(Nc3ncnc4ccccc34)cc2)cc1OC in this assay.
**Result** False

* * *

growth: recorded values
# System: KM12 colon
# test_summary: NCI-60 one-dose screen, 48 h (100 = growth as untreated, 0 = no growth, -100 = all killed)
# measurement_setup: 10 µM unless noted
This is part of a sample that, as a whole, favours compounds with a hit. Of some 83,000 tested, about 20% had one in any assay.
Report the figure in % without appending any unit label.

Solved cases below.
item_smiles: O=C(NCCc1ccccn1)OCc1nc2nc(Cl)nc(N3CCOCC3)c2[nH]1
growth / %: 12.2
--
item_smiles: N#Cc1ccc(-c2ccc3c(c2)NC(=O)/C3=C\c2ccc[nH]2)cc1
growth / %: 60.8
--
item_smiles: O=C(Cc1ccc(/C=C/C(=O)c2ncc[nH]2)cc1)Nc1ccc(C(F)(F)F)cc1
growth / %: -41.3
--
item_smiles: O=S(=O)(NCCCNc1nccc(-c2c(-c3cccc(O)c3)nc3occn23)n1)c1ccc(F)cc1
growth / %: 81.9
--
item_smiles: COc1cc(/C=N/NC(=O)c2ccccc2Nc2cccc(C(F)(F)F)c2)ccc1O
growth / %: 79.5
--
item_smiles: O=C(O)c1ccc[n+](CC(=O)N2CCN(c3cc4c(cc3F)c(=O)c(C(=O)O)cn4C3CC3)CC2)c1
growth / %: 92.2
--
item_smiles: COc1ccccc1N1CCN(C(=O)c2ccc3nc(NC(=O)c4ccc(NCCc5ccccc5)c([N+](=O)[O-])c4)sc3c2)CC1
growth / %: 79
--
item_smiles: Cc1nccc2c3ccc(OCc4cn(-c5ccc(Cl)cc5)nn4)cc3n(CCCc3ccccc3)c12
growth / %: 35.2

# ---- query molecule ----
Looking up CN(C)C(=O)OCc1nc2c(N3CCOCC3)nc(-c3ccccc3)nc2n1C , I found its growth recorded as -65.6

* * *

# System: NCI-H322M lung
# test_summary: NCI-60 one-dose screen, 48 h (100 = growth as untreated, 0 = no growth, -100 = all killed)
# measurement_setup: 10 µM unless noted
About 83,000 compounds went through this panel and 20% of them were active in at least one assay; those are over-represented in the sample as a whole. Calls of active or inactive are those of the source. How the source made its calls: active means growth percent below 10; inactive means the rest.
reported_property: growth

Solved cases below.
compound: FC(F)(F)c1cccc(Nc2ccccc2)c1
growth: 109% (inactive)

compound: CC(=O)c1cccc(NS(=O)(=O)c2cccc(C(=O)Nc3ccc(Br)cc3)c2)c1
growth: 73.4% [25 µM] (inactive)

compound: COc1cc(/C=C/C(=O)c2c(C)oc3nc[nH]c(=O)c23)ccc1O
growth: 98.3% (inactive)

Looking up O=C(Nc1ccc2cc3ccc(NC(=O)NC4CCCCC4)cc3nc2c1)NC1CCCCC1 , I found its growth recorded as 104% (inactive)

Looking up O=C(CSc1nc2sc3c(c2c(=O)n1Cc1ccccc1)CCCC3)N1CCN(c2ccccc2)CC1 , I found its growth recorded as 89.4% (inactive)
